# experimentalSystem: recombinant 17bHSD13 (N2-K300) (Homo sapiens (Human), UniProt Q7Z5P4)
# Sequence (Q7Z5P4 2-300): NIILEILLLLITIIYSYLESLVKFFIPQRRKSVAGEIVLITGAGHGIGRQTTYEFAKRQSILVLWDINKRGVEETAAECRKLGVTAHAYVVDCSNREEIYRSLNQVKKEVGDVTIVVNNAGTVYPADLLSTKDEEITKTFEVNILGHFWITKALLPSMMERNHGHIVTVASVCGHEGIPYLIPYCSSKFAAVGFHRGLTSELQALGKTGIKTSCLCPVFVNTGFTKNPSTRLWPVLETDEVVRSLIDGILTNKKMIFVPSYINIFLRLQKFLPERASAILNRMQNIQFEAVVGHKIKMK
# protocolDescription: In Vitro 17bHSD13 Enzyme Assay
# measurementConditions: 80 nM 17bHSD13, 0.5 mM NAD, 20 μM Estradiol, 2.5 h; estradiol to estrone by LC-MS/MS
pIC50: −log10 of the molar value.
Hi, to clarify the labels: true (1) covers pIC50 from 7 upward, false (0) covers anything below 7.

| molecule | labelClass |
| --- | --- |
| O=C(c1cc(-c2ccc(F)c(O)c2)no1)N1CCC(c2ccccc2)C1 (centres unmarked) | true (1) |
| O=C(c1noc(-c2cc(F)c(F)c(O)c2F)n1)N1CCOC2(CCC2)C1 | false (0) |
| O=C(c1noc(-c2cc(F)c(F)c(O)c2F)n1)N1CCO[C@@H]2CCC[C@H]21 | true (1) |
| CC1(C)COCCN1C(=O)c1noc(-c2cc(F)c(F)c(O)c2F)n1 | false (0) |
